From: paper PMC8523698

- assay-target: CYP1A2 (Homo sapiens)
- Sequence (P05177 whole entry): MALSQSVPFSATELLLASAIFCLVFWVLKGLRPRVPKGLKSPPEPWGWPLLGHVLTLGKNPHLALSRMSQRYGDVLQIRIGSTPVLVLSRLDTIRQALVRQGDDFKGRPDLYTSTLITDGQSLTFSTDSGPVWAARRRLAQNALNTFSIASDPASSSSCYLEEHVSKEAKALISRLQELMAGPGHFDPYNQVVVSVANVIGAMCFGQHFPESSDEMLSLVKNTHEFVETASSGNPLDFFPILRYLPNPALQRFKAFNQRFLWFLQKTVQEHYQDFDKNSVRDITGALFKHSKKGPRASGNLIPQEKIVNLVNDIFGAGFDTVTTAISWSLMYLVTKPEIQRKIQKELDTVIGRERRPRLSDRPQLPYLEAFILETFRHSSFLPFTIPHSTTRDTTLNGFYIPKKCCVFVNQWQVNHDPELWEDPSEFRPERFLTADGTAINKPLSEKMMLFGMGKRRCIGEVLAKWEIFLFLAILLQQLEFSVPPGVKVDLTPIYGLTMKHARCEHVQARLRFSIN
- assay-protocol: Reversible CYP inhibition in human liver microsomes
- condition-parameters: human, microsomes, pH 7.4, Percent of Control Activity, CYP 1A2, 200 µM, 30-Minute Preincubation
recorded-endpoint: activity at 200 µM
Write the quantity with the unit trailing the number.

State its activity at 200 µM for this compound: COc1cccc2[nH]c(C(=O)N[C@@H](CC(C)C)C(=O)N[C@@H](C[C@@H]3CCNC3=O)C(=O)CO)cc12 [PF-00835231]
93.6%

====

- System: CYP3A4/5
- assay-protocol: Reversible CYP inhibition in human liver microsomes
- condition-parameters: human, human liver microsomes, pH 7.4, probe midazolam (mdz), Percent of Control Activity, CYP 3A4/5 (mdz), 0.01 µM, Zero-Minute Preincubation
recorded-endpoint: activity at 0.01 µM (%)
Express it in %; write the number only.

Print CYP3A4/5 activity at 0.01 µM for COc1cccc2[nH]c(C(=O)N[C@@H](CC(C)C)C(=O)N[C@@H](C[C@@H]3CCNC3=O)C(=O)COP(=O)(O)O)cc12 .
96.3
